- System: AncSZ
- Protocol Text: phosphorylation enrichment, bacterial display (enrichment ratio); higher = better substrate or ligand; peptides without Tyr show the background
phosphorylation enrichment vs 1: at or above is 1, below is 0.

Completed entries (count: 5):
VRRRSYSAGNA [KANK1_Y324_K321R] :: 0
PFFASYPPSPD [GDAP2_Y491_T489A_YF] :: 1
MKKMHYVDPDH [ST3GAL5_Y99] :: 0
CEHRGYLYLAI [TEK_Y897] :: 1
PRSRSYSSTSI [REPS2_Y462] :: 1

Input: Could you please find out whether NHFKIYNPCAE [PTEN_Y68_L70P_YF] has phosphorylation enrichment that meets 1 or exceeds it?
Output: 0

Input: Tell me whether phosphorylation enrichment is at least 1 here: DERQPYAHMNG [IGF1R_Y1346]
Output: 0

Input: Is reported phosphorylation enrichment greater than or equal to 1 here: HFGNNYTDVLQ [MACC1_Y803_R804T_YF]
Output: 0

Input: Could you tell me if the measured phosphorylation enrichment of DASAVYLHDFQ [PLCG2_Y242] reaches 1 or more?
Output: 0

Input: Determine whether measured phosphorylation enrichment meets or exceeds 1 for GDYYCYLAEVA [YWHAG_Y133_R132C]
Output: 1

Input: Is phosphorylation enrichment at least 1? Consider SLIDGYYRLTE [JAK2_Y372_A377E]
Output: 1

Input: # check: phosphorylation enrichment of QLCVSYPGGFT [PROS1_Y259_N258S_YF] is greater than or equal to 1
Output: 1

###

Form field: SH2 binding enrichment (one value per entry).
- System Under Test: c-Src SH2
- Protocol Text: SH2 binding enrichment of the phosphorylated peptide, bacterial display (enrichment ratio); higher = better substrate or ligand; peptides without Tyr show the background
// return a plain number; no unit text

Input: Fill in: SH2 binding enrichment of EIPTQYEAMAS [GFAP_Y242_R239P] is ___
Output: 2.5

Input: Fill blank: measured SH2 binding enrichment of the sequence TRTDAYAVSSF is ____.
Output: 0.837

Input: Quick one: SH2 binding enrichment of ECKLRYSRKEG [PTPN11_Y263_L262R] ?
Output: 0.453

Input: Find the recorded SH2 binding enrichment belonging to PFTRNYFVRAV [CYBA_Y87_YF] and report it.
Output: 0.519

Input: I have this sequence here, GMRHGHGVRQS [JPH2_Y141_Y141H] , and I need its recorded SH2 binding enrichment.
Output: 1

Input: Using the record for AVISVYDLVAV [PSEN1_Y256] , report its SH2 binding enrichment.
Output: 1.39

###

- System Under Test: EPHB1 (UniProt P54762)
- Sequence (P54762 whole entry, looked up): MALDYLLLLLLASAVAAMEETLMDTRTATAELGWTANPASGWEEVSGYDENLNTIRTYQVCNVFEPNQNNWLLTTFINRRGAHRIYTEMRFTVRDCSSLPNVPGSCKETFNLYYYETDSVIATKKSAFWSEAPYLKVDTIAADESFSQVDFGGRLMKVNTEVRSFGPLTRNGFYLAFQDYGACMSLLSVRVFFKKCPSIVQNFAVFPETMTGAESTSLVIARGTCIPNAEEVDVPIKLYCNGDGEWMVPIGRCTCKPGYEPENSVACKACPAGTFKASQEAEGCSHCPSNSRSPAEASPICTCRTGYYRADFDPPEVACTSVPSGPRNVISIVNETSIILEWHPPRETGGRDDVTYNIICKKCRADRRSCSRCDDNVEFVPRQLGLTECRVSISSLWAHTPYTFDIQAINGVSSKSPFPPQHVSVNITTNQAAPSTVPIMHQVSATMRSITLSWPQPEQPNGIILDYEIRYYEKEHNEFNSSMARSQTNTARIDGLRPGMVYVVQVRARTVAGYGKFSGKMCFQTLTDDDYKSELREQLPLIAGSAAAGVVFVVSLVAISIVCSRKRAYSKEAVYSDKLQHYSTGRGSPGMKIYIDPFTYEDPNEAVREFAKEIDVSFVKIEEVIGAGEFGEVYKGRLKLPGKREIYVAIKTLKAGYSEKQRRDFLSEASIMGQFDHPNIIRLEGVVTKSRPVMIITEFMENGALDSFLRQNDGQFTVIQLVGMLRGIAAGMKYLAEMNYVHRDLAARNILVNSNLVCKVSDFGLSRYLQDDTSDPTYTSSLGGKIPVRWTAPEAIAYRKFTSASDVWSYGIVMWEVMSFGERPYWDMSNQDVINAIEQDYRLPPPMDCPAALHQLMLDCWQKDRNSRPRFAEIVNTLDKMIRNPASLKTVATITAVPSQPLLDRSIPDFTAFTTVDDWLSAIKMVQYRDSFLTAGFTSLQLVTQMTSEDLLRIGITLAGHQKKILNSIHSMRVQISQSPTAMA
- Protocol Text: phosphorylation enrichment, bacterial display (enrichment ratio); higher = better substrate or ligand; peptides without Tyr show the background
Assay Readout: phosphorylation enrichment
Answer as a number with no unit attached.

EFDRLYEEFTR [PIK3R1_Y467_YF] :: 3.46

Input: Fill in: phosphorylation enrichment of RQGKDYIGAIP [KDR_Y951_V952I] is ___
Output: 0.399

###

- System Under Test: c-Src SH2
- Protocol Text: SH2 binding enrichment of the phosphorylated peptide, bacterial display (enrichment ratio); higher = better substrate or ligand; peptides without Tyr show the background
Assay Readout: SH2 binding enrichment

Example results:
AGKEEYSAMRD [HRAS_Y64_Q61K] :: 0.761
QMRLRYLAAEE [CEP120_Y884] :: 0.445
SIVEDYRPPFY [ACVRL1_Y421_G416S] :: 0.462
EQKKYSNAMKK [SCN5A_Y1495_Y1495S] :: 0.646
EFGRRYGFSCQ [CCDC93_Y209_R213C_YF] :: 0.495

Input: Form entry - test system: c-Src SH2; read-out: SH2 binding enrichment; sequence: GVRYIYTIDGS [DCX_Y105]
Output: 0.67

Input: Hello, I am looking for reported SH2 binding enrichment with c-Src SH2 for SGDDGYAKDAQ [TENM4_Y1530_K1535Q] . Could you help?
Output: 0.572

Input: What measured SH2 binding enrichment is associated with GELQGYDIMEP [MSH2_Y863_S860L] on c-Src SH2?
Output: 4.99

Input: Request - read-out SH2 binding enrichment | tested on c-Src SH2 | sequence VRFVDYVLFRS [FAM189B_Y361_S358F]
Output: 1.44

Input: GET /values?readout=SH2 binding enrichment&system=c-Src SH2&item= DPADRYLTEQY [CDKL5_Y286_C291Y]
Output: 0.429

Input: Request: SH2 binding enrichment, test system c-Src SH2, entry ISSLCYELLEE [TRPC6_Y896_R895C]
Output: 0.701

Input: Form: Entry = FNVLQYVVPKV [EIF3A_Y382_E386K] | System = c-Src SH2 | SH2 binding enrichment = ____
Output: 0.964

Input: Item: MENFIYESMRF [CYP19A1_Y361_YF] Test system: c-Src SH2 Read-out: SH2 binding enrichment Value: ?
Output: 0.562

Input: Which SH2 binding enrichment is reported with c-Src SH2 for this entry: DGMADYSDPSY [CDC5L_Y459] ?
Output: 0.459

Input: What reported SH2 binding enrichment corresponds to QRRLVYYEGGA [RYR1_Y245] on c-Src SH2?
Output: 1.06

Input: Recorded SH2 binding enrichment for MDQAEYQAKIR [DHX58_Y518] with c-Src SH2, please?
Output: 0.612

Input: Hello, I am looking for reported SH2 binding enrichment with c-Src SH2 for GIFEDYVEGLR [MYL6_Y89_T85I_YF] . Could you help?
Output: 0.462

Input: Value wanted: SH2 binding enrichment (c-Src SH2) of entry DVSKEYGHLLP [HRC_Y99]
Output: 0.425

Input: Give the reported SH2 binding enrichment for DFPGIYSGYDD [POLR1C_Y33_N32I] (system: c-Src SH2).
Output: 1.44

Input: Param readout = SH2 binding enrichment; param system = c-Src SH2; param query = DVCKNYAKAKD [ALB_Y343_E345K] ; response: value;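 note: peptide library displayed on the E. coli surface as eCPX fusions, selected cells deep-sequenced, score is each peptide's frequency after selection divided by its frequency in the input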
Output: 0.559

Input: Fill in the recorded SH2 binding enrichment for this sequence, with c-Src SH2 as test system: QEMMEYRHQIQ [DES_Y324]
Output: 0.485

###

phosphorylation enrichment for assorted sequences
- System Under Test: EPHB2 (UniProt P29323)
- Sequence (P29323 whole entry, looked up): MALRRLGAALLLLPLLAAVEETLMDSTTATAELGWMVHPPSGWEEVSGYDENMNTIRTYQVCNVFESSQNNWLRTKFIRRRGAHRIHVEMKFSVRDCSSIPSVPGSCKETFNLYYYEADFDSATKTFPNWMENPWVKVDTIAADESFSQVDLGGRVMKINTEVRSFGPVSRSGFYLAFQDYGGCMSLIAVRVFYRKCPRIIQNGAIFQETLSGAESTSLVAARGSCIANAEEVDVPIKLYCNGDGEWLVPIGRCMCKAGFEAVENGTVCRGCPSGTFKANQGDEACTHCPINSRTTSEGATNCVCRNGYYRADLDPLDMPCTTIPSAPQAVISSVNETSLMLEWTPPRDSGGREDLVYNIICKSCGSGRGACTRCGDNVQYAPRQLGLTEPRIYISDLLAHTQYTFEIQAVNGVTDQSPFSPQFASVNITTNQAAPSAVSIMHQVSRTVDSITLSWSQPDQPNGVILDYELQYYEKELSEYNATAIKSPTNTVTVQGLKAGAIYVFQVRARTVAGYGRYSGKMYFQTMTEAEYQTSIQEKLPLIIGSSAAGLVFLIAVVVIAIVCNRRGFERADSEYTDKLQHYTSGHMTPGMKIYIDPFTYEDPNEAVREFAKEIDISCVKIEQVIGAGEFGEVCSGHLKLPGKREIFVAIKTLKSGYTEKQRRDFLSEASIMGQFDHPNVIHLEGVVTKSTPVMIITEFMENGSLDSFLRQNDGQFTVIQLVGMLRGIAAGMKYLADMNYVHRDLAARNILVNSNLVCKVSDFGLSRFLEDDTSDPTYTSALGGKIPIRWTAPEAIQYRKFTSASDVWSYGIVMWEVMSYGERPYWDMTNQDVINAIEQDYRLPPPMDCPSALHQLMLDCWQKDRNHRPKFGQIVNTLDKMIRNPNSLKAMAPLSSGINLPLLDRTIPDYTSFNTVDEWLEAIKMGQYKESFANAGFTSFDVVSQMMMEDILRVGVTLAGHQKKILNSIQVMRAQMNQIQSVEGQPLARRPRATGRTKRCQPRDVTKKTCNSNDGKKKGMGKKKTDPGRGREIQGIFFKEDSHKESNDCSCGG
- Protocol Text: phosphorylation enrichment, bacterial display (enrichment ratio); higher = better substrate or ligand; peptides without Tyr show the background
// no unit, no text: just the number

Consider the reported phosphorylation enrichment for these sequences:
CEHRGYLYLAI [TEK_Y897] :: 0.53
FLTQHYDAKPQ [ANG_Y38] :: 0.581
MTKEQYIKMNQ [ARFGEF2_Y797_R802Q] :: 0.575
VDTFWYKFLKR [EPM2A_Y86] :: 0.629
EPYELYCEMGS [CBL_Y371_Q367P] :: 6.42

Input: Param readout= phosphorylation enrichment; system= EPHB2 (UniProt P29323); entry= RELGEYPLAEY [ALDH1A3_Y492_A493P] ; returns value.
Output: 0.495

Input: Request - read-out phosphorylation enrichment | tested on EPHB2 (UniProt P29323) | sequence ADRSCYDLSCH [GARS1_Y467]
Output: 0.528

Input: Tell me reported phosphorylation enrichment for GPRSLYNGLVA [UCP2_Y79] , tested with EPHB2 (UniProt P29323).
Output: 0.36

###

List of phosphorylation enrichment values.
- Tested on: c-Abl (mouse)
- Protocol Text: phosphorylation enrichment, bacterial display (enrichment ratio); higher = better substrate or ligand; peptides without Tyr show the background
Give only the figure.

Consider the worked cases shown below.
TQTPPYVKKHR [LARP1B_Y457_P462R] :: 1.18
SDPIIYTLENV [ADGRE1_Y534_I539V] :: 0.723
NVKGIYAVGDV [GSR_Y371] :: 1.44

Input: Quick one: phosphorylation enrichment of LITSVYGCSRQ [TMPRSS6_Y290] ?
Output: 1.27

Input: What does the record list as phosphorylation enrichment for LITTLYIGFLG [KCNQ1_Y267] ?
Output: 2.22

Input: Which phosphorylation enrichment is reported for this sequence? FALAEYTEVKT [ALDH1A3_Y497_YF]
Output: 0.757

Input: Form field: reported phosphorylation enrichment of LTNDRYVATLT [IL6ST_Y396_L397V]
Output: 0.434

Input: Which phosphorylation enrichment value belongs to AFHGEYIPTVF [RAC2_Y32_P29H] ?
Output: 0.575

###

- System Under Test: Fes (UniProt P07332)
- Sequence (P07332 whole entry, looked up): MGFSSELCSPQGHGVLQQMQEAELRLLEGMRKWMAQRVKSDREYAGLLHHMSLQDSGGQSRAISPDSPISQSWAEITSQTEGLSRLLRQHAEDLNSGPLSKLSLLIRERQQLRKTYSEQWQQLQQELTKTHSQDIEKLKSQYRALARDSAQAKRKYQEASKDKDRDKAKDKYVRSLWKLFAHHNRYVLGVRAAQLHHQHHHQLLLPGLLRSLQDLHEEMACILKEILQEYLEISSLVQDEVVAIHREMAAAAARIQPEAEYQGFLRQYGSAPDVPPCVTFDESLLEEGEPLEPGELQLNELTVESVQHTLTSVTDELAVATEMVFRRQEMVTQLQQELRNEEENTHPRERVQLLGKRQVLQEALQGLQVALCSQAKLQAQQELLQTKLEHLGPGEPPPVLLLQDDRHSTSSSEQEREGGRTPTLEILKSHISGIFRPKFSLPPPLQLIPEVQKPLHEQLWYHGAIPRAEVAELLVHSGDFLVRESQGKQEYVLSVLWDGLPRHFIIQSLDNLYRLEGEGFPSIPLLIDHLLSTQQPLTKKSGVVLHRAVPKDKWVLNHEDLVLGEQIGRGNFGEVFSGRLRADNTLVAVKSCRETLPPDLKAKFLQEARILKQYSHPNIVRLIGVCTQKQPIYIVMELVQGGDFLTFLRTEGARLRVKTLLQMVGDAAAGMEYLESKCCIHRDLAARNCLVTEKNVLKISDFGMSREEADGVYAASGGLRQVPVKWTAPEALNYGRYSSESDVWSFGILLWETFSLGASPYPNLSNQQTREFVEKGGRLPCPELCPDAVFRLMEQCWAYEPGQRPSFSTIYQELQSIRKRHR
- Protocol Text: phosphorylation enrichment, bacterial display (enrichment ratio); higher = better substrate or ligand; peptides without Tyr show the background
The following sequences are listed with their measured phosphorylation enrichment values.
The answer should be written as a number, with no unit following it.

DRPASYLDKVR [KRT17_Y98_L95P] :: 0.636
CDDGKYVYVVT [RPS6KA3_Y488_Y483C] :: 1.6
TGQEEYSAMRD [KRAS_Y64_A59T] :: 1

Input: Given ETKGDYEKILV [ANXA1_Y335] , state its recorded phosphorylation enrichment.
Output: 1.17
